system under test: Nuclear receptor subfamily 1 group I member 2 (Homo sapiens) (UniProt O75469)
Sequence (O75469 whole entry, looked up): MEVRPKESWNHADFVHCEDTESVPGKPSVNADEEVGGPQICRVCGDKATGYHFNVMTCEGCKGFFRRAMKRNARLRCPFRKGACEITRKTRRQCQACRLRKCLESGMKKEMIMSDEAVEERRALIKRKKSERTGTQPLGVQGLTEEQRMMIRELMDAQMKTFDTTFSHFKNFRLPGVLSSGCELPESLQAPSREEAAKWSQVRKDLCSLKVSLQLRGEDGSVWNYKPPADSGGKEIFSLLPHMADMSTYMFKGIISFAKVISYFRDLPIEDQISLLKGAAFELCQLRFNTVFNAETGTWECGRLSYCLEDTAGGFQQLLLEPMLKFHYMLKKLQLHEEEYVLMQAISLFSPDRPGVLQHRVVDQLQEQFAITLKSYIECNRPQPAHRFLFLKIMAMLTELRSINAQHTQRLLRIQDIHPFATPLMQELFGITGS
assay overview: Human pregnane X receptor (PXR) small molecule agonists, qHTS assay (AID 1346982); further: nearly all actives have a fitted effect of over 35% in size
test settings: PXR-Luc HepG2, CYP3A4 luciferase reporter, 24 h; series mostly up to 92.4 µM
Records with an inconclusive call do not appear. Calls of active or inactive are those of the source. The call rests on the fitted dose curve; in most records, active means well fitted activation curve with a large enough effect in the repeat runs; inconclusive means weak or mixed curves; inactive means no such curve, though single readings can be large or run the other way.
Respond only with the outcome that fits, drawn from Yes for active, No for inactive

Worked examples, 10 compounds total:
Assay outcome for CC(C)Cc1ccccc1 : what was it?
No

Assay outcome for CC1(C)O[C@@H]2C[C@H]3[C@@H]4C[C@H](F)C5=CC(=O)CC[C@]5(C)[C@H]4[C@@H](O)C[C@]3(C)[C@]2(C(=O)CO)O1 : what was it?
Yes

Assay outcome for CC(=O)Nc1ccc(C(=O)O)cc1 : what was it?
No

Assay outcome for O=C(Cl)c1c(Cl)c(Cl)c(C(=O)Cl)c(Cl)c1Cl : what was it?
No

Assay outcome for CCCCCC/C=C/CCCCCCCC(=O)O : what was it?
No

Assay outcome for OC[C@@H](O)[C@H](O)[C@H](O)[C@@H](O)CO : what was it?
No

Assay outcome for Nc1cc(-c2ccncc2)c[nH]c1=O : what was it?
No

Assay outcome for NC(=O)/N=N/C(N)=O : what was it?
No

Assay outcome for CCCCC(CC)C(=O)OCCOCCOCCOC(=O)C(CC)CCCC (stereo unspecified) : what was it?
No

Assay outcome for Cc1cc(=O)[nH]c(C(C)C)n1 : what was it?
No

Continuing:
Assay outcome for Clc1cc(Cl)c(Cl)cc1Cl : what was it?
No

Assay outcome for CC1(C)CC(N=C=O)CC(C)(CN=C=O)C1 (stereo unspecified) : what was it?
No

Assay outcome for Cc1ccc(C(=O)O)o1 : what was it?
No

Assay outcome for Cc1ccc(C)c(C)c1 : what was it?
No

Assay outcome for NCCNCCNCCNCCN : what was it?
No

Assay outcome for CCCCCCCCCCC=CC1CC(=O)OC1=O (stereo unspecified) : what was it?
No

Assay outcome for C[C@@H](O)[C@H]1C(=O)N2C(C(=O)O)=C(S[C@@H]3CN[C@H](C(=O)N(C)C)C3)[C@H](C)[C@H]12 : what was it?
No

Assay outcome for O=[N+]([O-])c1cc(N(CCO)CCO)ccc1NCCO : what was it?
No

Assay outcome for C=C(C#N)C(=O)OCC : what was it?
No

Assay outcome for CCCCCCCCCCCCN : what was it?
No

Assay outcome for CCCCOCCOCCOC(=O)CCCCC(=O)OCCOCCOCCCC : what was it?
No

====

system under test: Cytochrome P450 1A2 (Homo sapiens)
assay overview: Cytochrome P450 Family 1 Subfamily A Member 2 (CYP1A2) small molecule antagonists: luciferase reporter qHTS assay (AID 1671199); further: nearly all actives have a fitted effect of over 50% in size
test settings: P450-Glo CYP1A2 enzyme, luciferin luminescence, 1 h; series mostly up to 115 µM
Records with an inconclusive call do not appear. Calls of active or inactive are those of the source. The call rests on the fitted dose curve; in most records, active means well fitted inhibition curve with a large enough effect in the repeat runs; inconclusive means weak or mixed curves; inactive means no such curve, though single readings can be large or run the other way.
Respond only with the outcome that fits, drawn from true for active, false for inactive

Worked examples, 5 compounds total:
Assay outcome for C=C(C#N)C(=O)OCC : what was it?
false

Assay outcome for OC[C@@H](O)[C@@H](O)[C@H](O)[C@@H](O)CO : what was it?
false

Assay outcome for O=[N+]([O-])C(CO)(CO)CO : what was it?
false

Assay outcome for CCCCNC(N)=O : what was it?
false

Assay outcome for CC(C)(CO)COC(=O)C(C)(C)CO : what was it?
false

Continuing:
Assay outcome for CC1=C(CC(=O)O)c2cc(F)ccc2/C1=C\c1ccc(S(C)=O)cc1 (stereo not drawn) : what was it?
true

Assay outcome for O=C(Cl)c1c(Cl)c(Cl)c(C(=O)Cl)c(Cl)c1Cl : what was it?
false

Assay outcome for NCc1cccc(CN)c1 : what was it?
true

====

assay overview: qHTS assay to test for compound auto fluorescence at 590 nm (red) in HEK293 cell free culture (AID 720683)
test settings: cell-free medium autofluorescence, Ex540/Em590 red; series mostly up to 91.3 µM
The source made the active and inactive calls. Calls come from the whole dose curve; as a rule, active = well fitted curve in the direction sought with a large enough effect in the repeat runs; inconclusive = weak or mixed curves; inactive = flat fitted curve, though single readings scatter.
measured property: outcome

get_value(item= Cc1cc(Cc2ccc(N)c(C)c2)ccc1N , readout=outcome) returns inactive

get_value(item= O=C(c1cc(O)c(O)c(O)c1)c1ccc(O)c(O)c1O , readout=outcome) returns inactive

get_value(item= CC1(C)CC(N=C=O)CC(C)(CN=C=O)C1 (centres undefined) , readout=outcome) returns inactive

get_value(item= CCc1ccccc1O , readout=outcome) returns inactive

get_value(item= OCC1CCCO1 (centres undefined) , readout=outcome) returns inactive

get_value(item= Oc1c(Cl)cc(Cl)c(Cl)c1Cl , readout=outcome) returns inactive

Continuing:
get_value(item= CCCCC(CC)COC(C)=O (centres undefined) , readout=outcome) returns inactive

get_value(item= Cc1ccc(C)c(C)c1 , readout=outcome) returns inactive

get_value(item= CCCCCCC(C)(C)S , readout=outcome) returns inactive

====

assay overview: qHTS assay to identify small molecule agonists or antagonists of the thyroid stimulating hormone receptor (TSHR) signaling pathway - wild type cell line counter screen (AID 1259384)
test settings: HEK293 wild type, cAMP HTRF counter-screen; series mostly up to 92.4 µM
Inconclusive results are not listed. Activity calls are given as the source filed them. Calls come from the whole dose curve.
measured property: outcome

get_value(item= C[C@@H]1O[C@@H](OC[C@H]2O[C@@H](Oc3c(-c4ccc(O)c(O)c4)oc4cc(O)cc(O)c4c3=O)[C@H](O)[C@@H](O)[C@@H]2O)[C@H](O)[C@H](O)[C@H]1O , readout=outcome) returns inactive

get_value(item= Nc1cc(-c2ccncc2)c[nH]c1=O , readout=outcome) returns inactive

get_value(item= CCCCCCCCCCCCOCC1CO1 (stereo not drawn) , readout=outcome) returns inactive

====

assay overview: qHTS assay for identifying genotoxic compounds that show differential cytotoxicity against isogenic chicken DT40 cell lines with known DNA damage response pathways - Rad54/Ku70 mutant cell line (AID 743015); further: nearly all actives have a fitted effect of over 60% in size
test settings: DT40 Rad54/Ku70 mutant viability, CellTiter-Glo, 40 h; series mostly up to 66.8 µM
Results filed as inconclusive are left out. Activity calls are given as the source filed them. Calls come from the whole dose curve; as a rule, active = well fitted cell-killing curve with a large enough effect in the repeat runs; inconclusive = weak or mixed curves; inactive = no such curve, though single readings can be large or run the other way.
Respond only with the outcome that fits, drawn from 1 = active, 0 = inactive

Assay outcome for CCCCCCCCC : what was it?
0

Assay outcome for C=C(C)C(=O)OCCCCCCCCCCCC : what was it?
0

Assay outcome for CC(C)Cc1ccccc1 : what was it?
0

Assay outcome for CC(C)(N=C=O)c1cccc(C(C)(C)N=C=O)c1 : what was it?
0

Assay outcome for C[C@@H]1O[C@@H](OC[C@H]2O[C@@H](Oc3c(-c4ccc(O)c(O)c4)oc4cc(O)cc(O)c4c3=O)[C@H](O)[C@@H](O)[C@@H]2O)[C@H](O)[C@H](O)[C@H]1O : what was it?
0

Continuing:
Assay outcome for CC(=O)Nc1ccc(C(=O)O)cc1 : what was it?
0

Assay outcome for CC(C)(C)C(=O)C1C(=O)c2ccccc2C1=O : what was it?
1

Assay outcome for OC[C@@H](O)[C@@H](O)[C@H](O)[C@@H](O)CO : what was it?
0

Assay outcome for CC(=O)[C@@]1(O)CC[C@H]2[C@@H]3CCC4=CC(=O)CC[C@]4(C)[C@H]3CC[C@@]21C : what was it?
1

Assay outcome for Clc1cc(Cl)c(Cl)cc1Cl : what was it?
0

Assay outcome for Nc1c(S(=O)(=O)O)cc(Br)c2c1C(=O)c1ccccc1C2=O : what was it?
0

====

assay overview: qHTS assay to test for compound auto fluorescence at 460 nm (blue) in HepG2 cell free culture (AID 720685)
test settings: Cell-free culture medium, blue autofluorescence 405/460 nm; series mostly up to 91.3 µM
Calls of active or inactive are those of the source. Calls follow the shape of the dose curve; as a rule, active = well fitted curve in the direction sought with a large enough effect in the repeat runs; inconclusive = weak or mixed curves; inactive = flat fitted curve, though single readings scatter.
Respond only with the outcome that fits, drawn from Y = active, N = inactive

Assay outcome for Cc1cc(Cc2ccc(N)c(C)c2)ccc1N : what was it?
N

Assay outcome for NC(=O)NNc1ccccc1 : what was it?
N

Assay outcome for NC(=O)/N=N/C(N)=O : what was it?
N

Assay outcome for C=CC(=O)OCCCCCCCC(C)C : what was it?
N

Assay outcome for Cc1cc(NS(=O)(=O)c2ccc(N)cc2)no1 : what was it?
N

Assay outcome for CCCCC(CC)COC(=O)CCCCCCCC(=O)OCC(CC)CCCC (centres undefined) : what was it?
N

Assay outcome for CN(CCOc1ccc(CC2SC(=O)NC2=O)cc1)c1ccccn1 (centres undefined) : what was it?
N

Assay outcome for COC(=O)Nc1nc2ccc(Sc3ccccc3)cc2[nH]1 : what was it?
N

Continuing:
Assay outcome for CC1COc2ccccc2N1C(=O)C(Cl)Cl (centres undefined) : what was it?
N

Assay outcome for Nc1nc2ncc(CNc3ccc(C(=O)N[C@@H](CCC(=O)O)C(=O)O)cc3)nc2c(=O)[nH]1 : what was it?
Y

Assay outcome for CC(C)(N=C=O)c1cccc(C(C)(C)N=C=O)c1 : what was it?
N

Assay outcome for C=C(C)C(=O)OCCCCCC : what was it?
N

Assay outcome for CCOC(=O)/C=C\C(=O)OCC : what was it?
N

Assay outcome for NCc1cccc(CN)c1 : what was it?
N

Values compiled from PubChem BioAssay (Tox21).
